# tested target: HMG-CoA reductase (Rattus norvegicus, UniProt P51639)
# Construct: from tissue; host or cells: microsomes (printed)
# Sequence (P51639 1-887): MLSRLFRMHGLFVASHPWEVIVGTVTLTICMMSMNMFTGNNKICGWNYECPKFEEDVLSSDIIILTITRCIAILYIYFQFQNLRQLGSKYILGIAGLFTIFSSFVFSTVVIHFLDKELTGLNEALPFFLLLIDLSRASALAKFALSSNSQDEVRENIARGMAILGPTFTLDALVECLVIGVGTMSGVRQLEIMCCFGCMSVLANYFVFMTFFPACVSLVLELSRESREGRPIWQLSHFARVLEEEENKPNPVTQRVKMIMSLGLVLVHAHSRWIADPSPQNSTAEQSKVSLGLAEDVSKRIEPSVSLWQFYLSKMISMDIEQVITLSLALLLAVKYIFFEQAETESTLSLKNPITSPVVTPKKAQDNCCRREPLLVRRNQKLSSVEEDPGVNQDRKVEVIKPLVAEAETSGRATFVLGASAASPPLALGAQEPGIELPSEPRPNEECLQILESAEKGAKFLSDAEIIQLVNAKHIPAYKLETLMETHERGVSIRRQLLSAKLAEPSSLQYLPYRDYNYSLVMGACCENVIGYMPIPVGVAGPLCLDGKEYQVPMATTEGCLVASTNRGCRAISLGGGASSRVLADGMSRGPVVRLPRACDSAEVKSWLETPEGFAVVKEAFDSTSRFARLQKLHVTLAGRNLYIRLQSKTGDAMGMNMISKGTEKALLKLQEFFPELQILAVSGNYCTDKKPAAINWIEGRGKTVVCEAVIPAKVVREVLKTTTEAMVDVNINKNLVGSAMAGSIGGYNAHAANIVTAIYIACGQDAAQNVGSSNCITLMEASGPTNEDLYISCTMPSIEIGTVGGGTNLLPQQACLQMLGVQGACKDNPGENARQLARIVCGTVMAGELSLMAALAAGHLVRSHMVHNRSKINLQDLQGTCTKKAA
# protocol text: Test A. In Vitro Microsomal Assay of HMG-CoA Reductase Inhibition
# Assay type: biochemical
experimental endpoint: IC50 (µM)
Field: numeric (µM). Do not append units.

Would you mind telling me what IC50 value was observed for CC[C@H](C)C(=O)O[C@H]1C[C@@H](C)C=C2C=C[C@H](C)[C@H](CC[C@@H]3C[C@@H](O)CC(=O)O3)[C@H]21 ? 0.72
